Measured values drawn from patent US20210220408A1 for this set.

- Test system: mobilized peripheral blood CD34+ cells
- protocol_text: CD34+ expansion assay
- Format: cell-based
- condition: Homo sapiens; read-out: CD34 Frequency EC50
endpoint_name: EC50

Example entries begin here.
structure_as_smiles	result
Cc1noc(C)c1C(=O)Nc1ccc2oc(-c3cc(F)ccc3Br)nc2c1	0.5 to 1 µM
Cc1ccc2cc(C(=O)N3CCN(S(=O)(=O)c4cccs4)CC3)[nH]c2c1	≥ 5 µM
CCc1ccc(C(=O)Nc2scc(-c3ccc(Cl)cc3)c2C(N)=O)s1	0.5 to 1 µM
Cc1cccc(C(=O)Nc2ccc(-c3nc4ncccc4o3)cc2)c1	0.5 to 1 µM
COc1ccccc1C(=O)Nc1cccc(-c2cn3ccsc3n2)c1	1 to 5 µM
CC(C)(C)c1ccc(O)c(NC(=O)c2cnc3ccccn3c2=O)c1	1 to 5 µM

Give the reported EC50 for this molecule. COc1ccc(NC(=O)CNc2ccc(C(F)(F)F)cc2)cc1Cl
1 to 5 µM

Give the reported EC50 for this molecule. Cc1ccc2nc(-c3ccc(Cl)cc3)cc(C(N)=O)c2c1
< 0.5 µM

Give the reported EC50 for this molecule. Cc1cc(Oc2ncccc2C#N)ccc1NC(=O)c1oc(Br)cc1C
1 to 5 µM
